Biological target: TNFRSF25-Fc protein (UniProt Q93038)
Assay: single point capture ELISA: scFv on anti-c-myc, biotinylated antigen, streptavidin-HRP
Recorded measurements of OD450, one per entry
MEASURED METRIC: OD450

[[record]]
binder = "27A3 (scFv mutant of W3072-z4C12) (scFv, V domains shown, not shown: small tags and cut ends) VH: EVQLVESGGGLSQPGNSLQLSCEASGFTFSNHDLNWVRQAPGKGLEWVAYISSASGLISYADAVRGRFTISRDNAKNSLFLQMNNLKSEDTAMYYCARDPPYTGLYALDFWGQGTQVTVSS VL: QPVLTQSPSASASLSGSVKLTCTLSSELSSYTIVWYQQRPDKAPKYVMYLKSDGSHSKGDGIPDRFSGSSSGAHRYLSISNVQSEDDATYFCGAGYTLAGQYGWVFGSGTKVTVL"
observed_measurement = 1.61

[[record]]
binder = "42G2 (scFv mutant of W3072-z4C12) (scFv, V domains shown, not shown: small tags and cut ends) VH: EVQLVESGGGLSQPGNSLQLSCEASGFTFSNHDLNWVRQAPGKGLEWVAYISSASGLISYADAVRGRFTISRDNAKNSLFLQMNNLKSEDTAMYYCARDPPYSGLYALDFWGQGTQVTVSS VL: QPVLTQSPSASASLSGSVKLTCTLSSELSWYTIVWYQQRPDKAPKYVMYLKSDGSHSKGDGIPDRFSGSSSGAHRYLSISNVQSEDDATYFCGAGYTLAGQYGWVFGSGTKVTVL"
observed_measurement = 3.19

[[record]]
binder = "42F9 (scFv mutant of W3072-z4C12) (scFv, V domains shown, not shown: small tags and cut ends) VH: EVQLVESGGGLSQPGNSLQLSCEASGFTFSNHDLNWVRQAPGKGLEWVAYISSASGLISYADAVRGRFTISRDNAKNSLFLQMNNLKSEDTAMYYCARDPPYSGLYALDFWGQGTQVTVSS VL: QPVLTQSPSASASLSGSVKLTCTLSSELSFYTIVWYQQRPDKAPKYVMYLKSDGSHSKGDGIPDRFSGSSSGAHRYLSISNVQSEDDATYFCGAGYTLAGQYGWVFGSGTKVTVL"
observed_measurement = 2.33

[[record]]
binder = "66B8 (scFv mutant of W3072-z4C12) (scFv, V domains shown, not shown: small tags and cut ends) VH: EVQLVESGGGLSQPGNSLQLSCEASGFTFSNHDLNWVRQAPGKGLEWVAYISSASGLISYADAVRGRFTISRDNAKNSLFLQMNNLKSEDTAMYYCARDPPYSGLYALDFWGQGTQVTVSS VL: QPVLTQSPSASASLSGSVKLTCTLSSELSSYTIVWYQQRPDKAPKYVMYLKSDGSHSKGDGIPDRFSGSSSGAHRYLSISNVQSEDDATYFCGAGYTLANQYGWVFGSGTKVTVL"
observed_measurement = 0.4

[[record]]
binder = "42H8 (scFv mutant of W3072-z4C12) (scFv, V domains shown, not shown: small tags and cut ends) VH: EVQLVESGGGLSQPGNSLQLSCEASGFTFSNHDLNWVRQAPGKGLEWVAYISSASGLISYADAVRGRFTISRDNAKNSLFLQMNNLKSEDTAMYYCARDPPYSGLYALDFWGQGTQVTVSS VL: QPVLTQSPSASASLSGSVKLTCTLSSELSYYTIVWYQQRPDKAPKYVMYLKSDGSHSKGDGIPDRFSGSSSGAHRYLSISNVQSEDDATYFCGAGYTLAGQYGWVFGSGTKVTVL"
observed_measurement = 1.67

[[record]]
binder = "43F11 (scFv mutant of W3072-z4C12) (scFv, V domains shown, not shown: small tags and cut ends) VH: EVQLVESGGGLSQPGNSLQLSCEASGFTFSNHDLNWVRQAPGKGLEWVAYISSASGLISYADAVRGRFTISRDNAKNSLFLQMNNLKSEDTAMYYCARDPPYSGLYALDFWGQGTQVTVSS VL: QPVLTQSPSASASLSGSVKLTCTLSSELSSFTIVWYQQRPDKAPKYVMYLKSDGSHSKGDGIPDRFSGSSSGAHRYLSISNVQSEDDATYFCGAGYTLAGQYGWVFGSGTKVTVL"
observed_measurement = 1.6

